Measured melting point, listed per entry for reference.

Input Smiles: N#Cc1c(-c2ccc(S(=O)(=O)NC(CF)CF)cn2)n(C2CCC2)c2cc(N3CCOCC3)ccc12
melting point: 241 to 242 °C

Find the recorded melting point belonging to CCc1cc2c(cc1F)c(C#N)c(-c1ccc(S(=O)(=O)N[C@@H](C)C(F)(F)F)cn1)n2-c1ccc(Cl)cc1 and report it.
279 to 289 °C

Find the recorded melting point belonging to N#Cc1c(-c2ccc(S(=O)(=O)NC(CF)CF)cn2)n(-c2ccccn2)c2cc(OC(F)F)ccc12 and report it.
186 to 190 °C

Find the recorded melting point belonging to N#Cc1c(-c2ncc(S(=O)(=O)NC(CF)CF)cn2)n(-c2ccccc2)c2cc(OC(F)F)ccc12 and report it.
206 to 208 °C

====

Measured melting point, listed per entry for reference.

Input Smiles: CC(C)n1c(-c2ccc(S(=O)(=O)N[C@@H](C)C(F)(F)F)cn2)c(C#N)c2c(F)cc(OC(F)F)cc21
Result: 193 to 194 °C
//
Input Smiles: N#Cc1c(-c2ncc(S(=O)(=O)NC(CF)CF)cn2)n(C2CCCCC2)c2cc(OC(F)F)ccc12
Result: 174 to 176 °C
//
Input Smiles: CCCn1c(-c2ccc(S(=O)(=O)NC(CF)CF)cn2)c(C#N)c2ccc(OC(F)F)cc21
Result: 156 to 158 °C
//
Input Smiles: Cc1ccc2c(c1)c(C#N)c(-c1ncc(S(=O)(=O)NC(C)C)cn1)n2C1CCCCC1
Result: 183 to 188 °C

Find the recorded melting point belonging to CC(C)(NS(=O)(=O)c1ccc(-c2c(C#N)c3c(F)cc(C4CC4)cc3n2-c2ncccn2)nc1)C(F)(F)F and report it.
198 to 200 °C

Find the recorded melting point belonging to N#Cc1c(-c2ccc(S(=O)(=O)NC(CF)CF)cn2)n(C2CCCC2)c2ccc(OC(F)F)cc12 and report it.
172 to 175 °C

Find the recorded melting point belonging to Cc1ccc(-n2c(-c3ncc(S(=O)(=O)NC(C)C)cn3)c(C#N)c3cc(F)ccc32)cc1 and report it.
200 to 202 °C

====

Measured melting point, listed per entry for reference.

Here are 4 compounds together with their reported answers.
Input Smiles: Cc1ccc2c(C#N)c(-c3ccc(S(=O)(=O)NC(C)(C)C(F)(F)F)cn3)n(C3CCC3)c2c1F
melting point: 168 to 175 °C
//
Input Smiles: CCc1cc2c(cc1F)c(C#N)c(-c1cc(C)c(S(=O)(=O)N[C@H](C)C(F)(F)F)cn1)n2-c1ncccn1
melting point: 231 to 236 °C
//
Input Smiles: C[C@@H](C1CC1)n1c(-c2ccc(NS(=O)(=O)C(C)(C)C)nc2)c(C(N)=O)c2cc(F)c(OC(F)F)cc21
melting point: 239 to 241 °C
//
Input Smiles: N#Cc1c(-c2ccc(S(=O)(=O)NC(CF)CF)cn2)n(C2CCCC2)c2c(F)cccc12
melting point: 128 to 129 °C

Find the recorded melting point belonging to C[C@@H](NS(=O)(=O)c1ccc(-c2c(C#N)c3ccc(Cl)cc3n2C2CCCCC2)nc1)C(F)(F)F and report it.
218 to 223 °C

Find the recorded melting point belonging to CC(C)Oc1ccc2c(C#N)c(-c3ccc(NS(=O)(=O)C(C)C)cn3)n(CC3CC3)c2c1 and report it.
168 to 172 °C

Find the recorded melting point belonging to N#Cc1c(-c2ccc(S(=O)(=O)NC(CF)CF)cn2)n(C2CCC2)c2cc(OC(F)F)c(F)cc12 and report it.
160 to 164 °C
